PROTOCOL NOTES: protein stability index of a GFP-peptide fusion (GPS, HEK-293T) (PSI 1-6); higher = more stable;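 note: 24-mer peptide tiles fused after GFP, lentivirally expressed, FACS-sorted into six equal bins by GFP/DsRed ratio, decoded by Illumina sequencing, PSI is the read-weighted mean bin number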
APPLIED CONDITIONS: treatment: DMSO; c terminus: a fixed tail appended
Tag: yes if measured protein stability index is not below 3, no if it is.

>>> class_name("ENRELYIKTTLRELLVYIVFLVDI [PKD2L1]")
"no"
>>> class_name("LRSFCAWQRGLNTPEDSDPDHFDT [ADAMTS4]")
"yes"
>>> class_name("TEELNKEVASNTEMIQTSKTEITD [KRT15]")
"yes"
>>> class_name("CKARMERDGYGMTPLLAASVTGHT [FEM1A]")
"no"
>>> class_name("YFFPVIFSKASSSLQLVFGIELME [MAGEA3]")
"yes"
>>> class_name("TQQELRKIREKEEWIKLDYHRRHN [IQUB]")
"yes"
>>> class_name("GRGSLSSGGQTSWDSGCLAPPSTR [PLEKHN1]")
"yes"
>>> class_name("MLRQLLLAALCLAGPPAPARACQL [CCDC3]")
"yes"
>>> class_name("SFPLWYEEALKDEEERAQDRIATT [MAGEA10]")
"yes"
>>> class_name("CLECGKSFCHGSSLKRHLKTHTGE [ZNF449]")
"yes"
>>> class_name("SSSSSSSSSSGPGHGEPDVLKDEL [TMEM40]")
"yes"
>>> class_name("VQETNKQPPQTVNPIGHLPESLTK [ATF4]")
"yes"
>>> class_name("LGPLLSEPLVLYNQNLSNRPSFNR [MYOZ1]")
"no"
>>> class_name("YSSSRDGYGGSRDSYSSSRSDLYS [RBMX]")
"yes"
>>> class_name("RVTSLANLISPVRNGAVRRFGQTI [NET1]")
"no"
>>> class_name("KSPLHMTAVHGRFTRSQTLIQNGG [ANKRD44]")
"yes"
>>> class_name("FYHDHTKIIICSQNEEYLLTYINE [PLK2]")
"no"
>>> class_name("EGYVWRGSQLEDQALRGLEGYTWR [ZSWIM9]")
"no"
>>> class_name("GSNPSSSNSSQDSLHKGAKRKGIK [PPFIA4]")
"yes"
>>> class_name("ILKNLSQVAMRCRCSSMHFLVAEW [SAT1]")
"no"
>>> class_name("HGFLFMIFQIGVLGFGPTYVVLAY [SOAT1]")
"no"
>>> class_name("PPWKEAFRQRCLERMRNSRDRLLN [RPAIN]")
"no"
>>> class_name("LALALKKCKPSLPAEAEGAAQELE [TMEM120A]")
"yes"
>>> class_name("AWLPQAKVPFSQEIKDLILPKISD [PI4K2A]")
"no"
>>> class_name("CQEWYARRHCPLPQATFWGLVTPR [SOAT2]")
"no"

----------
PROTOCOL NOTES: protein stability index of a GFP-peptide fusion (GPS, HEK-293T) (PSI 1-6); higher = more stable
APPLIED CONDITIONS: treatment: DMSO; c terminus: a fixed tail appended
OBSERVABLE: protein stability index

>>> measurement("QAAFTQQGMEGIKVFLHERELWLK [TBX5]")
2.86
>>> measurement("RYCQCNPDDSTSEDGIHTLTCALM [PSD2]")
3.96
>>> measurement("WILFPLLGCYAVYSLLYLEHKGWY [CLPTM1]")
2.9
>>> measurement("RHKQPTLLMVRASRRSGKTSAVLK [C6orf223]")
3.29
>>> measurement("NIRQKVKELVEFAQDDDRLREERK [CLINT1]")
4.55
>>> measurement("APQNLTRWTFEKACHPFLLGPPLV [TOR1AIP2]")
2.4
>>> measurement("GSLYVFGGTTGYIYSTDLHKLDLN [KLHDC10]")
2.4
>>> measurement("GMLAPAAGPAFDSDPEISDVDEDE [PPFIA4]")
5.35
>>> measurement("RTVAVGDIVWGKIHGFPWWPARVL [PWWP2B]")
2.02
>>> measurement("GGIQEGAVTPAGVVNKYQINGLQA [DHCR7]")
3.93
>>> measurement("GSVLRIQPLRTPRDEAIYECVASN [PTPRD]")
3.24
>>> measurement("RGIDSSSVKLRGSSLFMDTEKSGK [WEE1]")
4.91
>>> measurement("RGLRGPNLTSPASITFTTGLEAPR [TNXB]")
3.84
